test system: MDA-MB-436; assay: normalised response (% of control), CellTiter-Glo; higher = more viable cells (100 = DMSO, 0 = benzethonium chloride kill control); details: incubation time: 72 h
measured_endpoint: normalised response (%)
Kindly answer with a numeric value in %, unit omitted.

Worked examples, 4 compounds total:
[
  {
    "compound": "O=P1(N(CCCl)CCCl)NCCCO1 (stereo not given) [Cyclophosphamide] (40 nM)",
    "assay_target": "MDA-MB-436",
    "value_measured": 99.1
  },
  {
    "compound": "COCC[n+]1c2c(n(Cc3cnccn3)c1C)C(=O)c1ccccc1C2=O [YM155] (1 nM)",
    "assay_target": "MDA-MB-436",
    "value_measured": 81.3
  },
  {
    "compound": "COc1cc2ncnc(Nc3ccc(F)c(Cl)c3)c2cc1OCCCN1CCOCC1 [Gefitinib] (1000 nM)",
    "assay_target": "MDA-MB-436",
    "value_measured": 103
  },
  {
    "compound": "COCC[n+]1c2c(n(Cc3cnccn3)c1C)C(=O)c1ccccc1C2=O [YM155] (1000 nM)",
    "assay_target": "MDA-MB-436",
    "value_measured": -0.32
  }
]

Could you now consider this next compound?
get_value(item= CN(C)CCOc1ccc(/C(=C(/CCCl)c2ccccc2)c2ccccc2)cc1 [Toremifene] (10 nM) , readout=normalised response) returns 97.1

====

test system: CAL-148; test: normalised viability (% of control), CellTiter-Blue; higher = more viable cells (100 = DMSO, 0 = benzethonium chloride kill control); settings: incubation time: 72 h
Reported values of normalised viability for individual entries
Give the value, in units of %, as a plain number.

Study these solved cases before continuing.
[
  {
    "compound": "NC(=O)c1ccc(I)c([N+](=O)[O-])c1 [Iniparib] (1 nM)",
    "units_text": "%",
    "value_measured": 93.2
  },
  {
    "compound": "CC(C)C[C@@H](C(=O)N[C@H](C(=O)OC1CCCC1)c1ccccc1)[C@H](O)C(=O)NO [Tosedostat] (1 nM)",
    "units_text": "%",
    "value_measured": 109
  }
]

Next, consider the following compound.
// field: normalised viability; key: COCC[n+]1c2c(n(Cc3cnccn3)c1C)C(=O)c1ccccc1C2=O [YM155] (1 nM) ; value = 105

====

Parameter EC50, CellTiter-Blue viability: see the listing below.
tested on: CAL-51; conditions: 72 h
Quick note: give the figure in nM, leave out the unit.

[
  {
    "query_smiles": "O=C(/C=C/c1cccc(S(=O)(=O)Nc2ccccc2)c1)NO",
    "value_measured": 1170
  },
  {
    "query_smiles": "COc1cc(OC2CCN(C)CC2)ccc1Nc1ncc2c(n1)n(C1CCCC1)c(=O)n2C",
    "value_measured": 1390
  },
  {
    "query_smiles": "CO[C@H]1C[C@@H]2CC[C@@H](C)[C@@](O)(O2)C(=O)C(=O)N2CCCC[C@H]2C(=O)O[C@H]([C@H](C)C[C@@H]2CC[C@@H](OP(C)(C)=O)[C@H](OC)C2)CC(=O)[C@H](C)/C=C(\\C)[C@@H](O)[C@@H](OC)C(=O)[C@H](C)C[C@H](C)/C=C/C=C/C=C/1C",
    "value_measured": 1.65
  },
  {
    "query_smiles": "O=C(Nc1cccnc1)N1CCC(Cc2cccc(Oc3ccc(C(F)(F)F)cn3)c2)CC1",
    "value_measured": 5960
  }
]

EC50, CellTiter-Blue viability for "O=C(Nc1ccncc1)C(=O)c1cn(Cc2ccc(Cl)cc2)c2ccccc12" is 631
